- target.under.test: T1, Human Semaphorin3A-Sema Domain, TPP-19068 (human, UniProt Q14563 21-569)
- T1 construct: produced inhouse in HEK293-6E; also called human monovalent Sema3A domain
- T1 sequence: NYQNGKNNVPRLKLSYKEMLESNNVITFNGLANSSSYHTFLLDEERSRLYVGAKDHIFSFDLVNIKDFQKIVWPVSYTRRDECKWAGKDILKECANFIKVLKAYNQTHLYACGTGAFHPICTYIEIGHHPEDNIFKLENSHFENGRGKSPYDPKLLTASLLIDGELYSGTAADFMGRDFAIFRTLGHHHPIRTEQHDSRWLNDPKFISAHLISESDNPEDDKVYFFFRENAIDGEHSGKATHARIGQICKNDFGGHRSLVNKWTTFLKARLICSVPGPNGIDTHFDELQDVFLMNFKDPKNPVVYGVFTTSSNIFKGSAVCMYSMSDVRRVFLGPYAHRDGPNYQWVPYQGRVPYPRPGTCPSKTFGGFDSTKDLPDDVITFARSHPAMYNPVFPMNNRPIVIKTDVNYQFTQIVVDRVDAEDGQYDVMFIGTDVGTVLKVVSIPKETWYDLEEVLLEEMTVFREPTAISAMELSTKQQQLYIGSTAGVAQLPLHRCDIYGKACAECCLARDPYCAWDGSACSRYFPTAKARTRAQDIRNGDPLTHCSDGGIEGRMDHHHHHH
- assay.overview: SPR, captured antibody, Sema3A domain analyte
metric.name: Kd (nM)
Form entry: value (nM) — number only.

The examples below pair each entry with its known result.
binder	u	Kd
TPP-17755 (antibody, human IgG1, lambda, V domains shown, also called Samsung; Samsung Prior Art F11) VH: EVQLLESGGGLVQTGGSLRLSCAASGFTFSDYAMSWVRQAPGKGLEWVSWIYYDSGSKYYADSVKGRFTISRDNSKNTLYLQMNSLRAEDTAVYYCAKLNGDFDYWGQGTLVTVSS VL: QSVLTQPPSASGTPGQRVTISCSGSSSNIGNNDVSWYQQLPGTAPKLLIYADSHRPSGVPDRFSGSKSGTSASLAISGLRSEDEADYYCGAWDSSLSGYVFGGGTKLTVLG	nM	6.9
TPP-30788 (antibody, human IgG1, kappa, V domains shown, prior art, WO 2020/225400; also called BI clone I; Böhringer (BI) Clone I) VH: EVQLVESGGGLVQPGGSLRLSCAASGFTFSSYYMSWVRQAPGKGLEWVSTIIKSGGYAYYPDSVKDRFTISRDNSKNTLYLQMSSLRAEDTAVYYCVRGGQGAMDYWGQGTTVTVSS VL: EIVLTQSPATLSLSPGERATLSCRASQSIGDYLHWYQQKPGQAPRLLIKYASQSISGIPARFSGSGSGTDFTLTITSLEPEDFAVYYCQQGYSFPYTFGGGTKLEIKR	nM	0.018

Kd for TPP-25448 (antibody, human IgG1, lambda, V domains shown) VH: EVQLLESGGGLVQPGGSLRLSCAASGFTFDSYEMNWVRQAPGKGLEWVSGISWNSGWIDYADSVKGRFTISRDNSKNTLYLQMNSLRAEDTAVYYCARSGYSSSWFDPDFDYWGQGTLVTVSS VL: QSVLTQPPSVSGAPGQRVTISCTGSSSDIGAGYDVHWYQQLPGTAPKLLIYGNSNRPSGVPDRFSGSKSGTSASLAITGLQAEDEADYYCQSYAGINPYVVFGGGTKLTVLG is 0.053
